Target: T1, EsCas13d, nuclease-dead (Eubacterium siraeum, UniProt B0MS50, R295A;H300A;R849A;H854A)
T1 sequence: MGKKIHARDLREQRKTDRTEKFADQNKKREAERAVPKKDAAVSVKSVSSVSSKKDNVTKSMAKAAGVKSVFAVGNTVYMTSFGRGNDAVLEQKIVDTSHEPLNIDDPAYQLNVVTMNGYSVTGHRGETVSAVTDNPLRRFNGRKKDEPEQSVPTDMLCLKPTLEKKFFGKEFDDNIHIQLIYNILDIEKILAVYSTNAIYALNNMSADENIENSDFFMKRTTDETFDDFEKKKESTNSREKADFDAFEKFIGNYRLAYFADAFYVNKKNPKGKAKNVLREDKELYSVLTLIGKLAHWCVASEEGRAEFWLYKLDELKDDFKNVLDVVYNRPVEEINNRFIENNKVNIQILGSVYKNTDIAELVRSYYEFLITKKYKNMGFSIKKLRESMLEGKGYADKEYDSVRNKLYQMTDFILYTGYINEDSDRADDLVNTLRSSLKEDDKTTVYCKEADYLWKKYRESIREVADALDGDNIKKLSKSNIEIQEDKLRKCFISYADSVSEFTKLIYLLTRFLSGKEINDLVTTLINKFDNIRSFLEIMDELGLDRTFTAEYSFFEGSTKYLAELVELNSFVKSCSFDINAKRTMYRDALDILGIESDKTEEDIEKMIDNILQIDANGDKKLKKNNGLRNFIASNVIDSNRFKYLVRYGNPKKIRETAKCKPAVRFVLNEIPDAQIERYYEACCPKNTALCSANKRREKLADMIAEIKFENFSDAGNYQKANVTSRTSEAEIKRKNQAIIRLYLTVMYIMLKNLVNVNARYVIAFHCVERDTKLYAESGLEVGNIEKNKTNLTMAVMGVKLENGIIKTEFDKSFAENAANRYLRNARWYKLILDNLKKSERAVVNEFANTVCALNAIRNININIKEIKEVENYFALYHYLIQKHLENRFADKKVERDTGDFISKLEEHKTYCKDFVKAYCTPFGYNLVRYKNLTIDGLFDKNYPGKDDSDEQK
Assay: crRNA (strand 1, pre-loaded); Mg2+; 40 mM Tris-HCl pH 7.5, 150 mM NaCl, 6 mM MgCl2, 1 mM DTT, 0.1% Tween-20, 0.2 mg/ml BSA; 25 C; 10 min per concentration, then washed
Settings: tags: His6-TwinStrep-SUMO cleaved; N-terminal SNAP kept (SNAP-Surface 488); label: 3' end held by stalled T7 RNA polymerase
MEASURE: Kd (nM)

{"columns": ["BINDER", "MEASURE", "VALUE_UNIT", "READOUT_NUMBER"],
 "data": [
  ["target 2 MT 5'PFS GGU 3'PFS CUU (mixed) RNA 1: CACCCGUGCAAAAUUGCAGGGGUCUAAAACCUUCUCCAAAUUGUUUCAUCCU RNA 2: GGGAAUGGAUCCACAUCUACGAAUUCGGUAGGAUGAAACAAUUUGGAGAAGCUUAGAUCGGAAGAGCACACGU", "Kd", "nM", 16.7],
  ["target 3 C1G,A5U (mixed) RNA 1: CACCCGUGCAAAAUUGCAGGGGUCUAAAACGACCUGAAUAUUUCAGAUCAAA RNA 2: GGGAAUGGAUCCACAUCUACGAAUUCGUUUUUGAUCUGAAAUAUUCUGGUGUGCAGAUCGGAAGAGCACACGU", "Kd", "nM", 10.1],
  ["target 1 insG 3' of 16,insC 3' of 8 (mixed) RNA 1: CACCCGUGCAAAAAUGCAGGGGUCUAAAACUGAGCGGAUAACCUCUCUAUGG RNA 2: GGGAAUGGAUCCACAUCUACGAAUUCGUACCAUAGAGGAGGUUAUCCCGCUCACCGAGAUCGGAAGAGCACACGU", "Kd", "nM", 24.3],
  ["target 2 MT 5'PFS GAC 3'PFS ACU (mixed) RNA 1: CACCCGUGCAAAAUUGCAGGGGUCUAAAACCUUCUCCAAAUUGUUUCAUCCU RNA 2: GGGAAUGGAUCCACAUCUACGAAUUCGACAGGAUGAAACAAUUUGGAGAAGACUAGAUCGGAAGAGCACACGU", "Kd", "nM", 30]
]}
